Sourced from paper PMC3676778

- Test Protocol: Cell viability (MTT) of RAW264.7 cells in the presence of LPS
- Format: cell-based, murine
- Measurement Parameters: mouse, RAW264.7 macrophage cells, RAW 264.7 cells, 100 ng/mL LPS, mean ± SD of three replicates, read-out: Cytotoxicity IC50
- Protocol: A murine macrophage cell line RAW264.7 (BCRC No. 60001) was purchased from the Bioresources Collection and Research Center (BCRC) of the Food Industry Research and Development Institute (Hsinchu, Taiwan). […] Cells (2 × 105) were cultured in 96-well plate containing DMEM supplemented with 10% FBS for 1 day to become nearly confluent. […] After 30-min incubation, the absorbance at 570 nm was read using a microplate reader (Molecular Devices, Sunnyvale, CA, USA). […]
Quantity Name: IC50 at 24 h

Study these solved cases before continuing.
{"columns": ["Compound", "IC50 at 24 h"],
 "data": [
  ["CCCCCCCCCC/C=C/[C@@H]1C(=O)O[C@@H](C)[C@H]1O", "78 µM"],
  ["COc1cc(CC2COCC2Cc2ccc3c(c2)OCO3)ccc1O (stereo not shown)", "> 292 µM"],
  ["CCCCCCCCCCC/C=C1\\C(=O)O[C@@H](C)[C@H]1O [Compound 2, 3-epilistenolide D1]", "32.6 µM"],
  ["COc1ccc(-c2oc3cc(O)cc(O)c3c(=O)c2OC2OC(C)C(OC(=O)C=Cc3ccc(O)cc3)C(O)C2O)cc1 (stereo not shown)", "> 84.5 µM"],
  ["C[C@@H]1O[C@@H](Oc2c(-c3ccc(O)cc3)oc3cc(O)cc(O)c3c2=O)[C@H](O)[C@H](O)[C@H]1OC(=O)/C=C/c1ccc(O)cc1", "> 86.5 µM"],
  ["C[C@@H]1O[C@@H](Oc2c(-c3ccc(O)cc3)oc3cc(O)cc(O)c3c2=O)[C@H](O)[C@H](O)[C@H]1OC(=O)/C=C\\c1ccc(O)cc1", "> 86.5 µM"]
]}

Now consider a different compound.
Q: So what does the record say about IC50 at 24 h for `Oc1cc(O)c2c(c1)O[C@H](c1ccc(O)c(O)c1)[C@@H](O)C2` ?
Result: > 517 µM
